assay: in vivo; conditions: beagle, dog
Where a name gives a salt, the structure may show the parent alone.
Quantity: Tmax (min)
Dear colleague, please return just the value in min, with no unit written.

Fill blank: measured Tmax of the compound CN(C)CCC=C1c2ccccc2C=Cc2ccccc21 [cyclobenzaprine HCl] is ____.
10

###

target: Sigma 2 (Homo sapiens); assay: Equilibrium binding (Table 69); settings: read-out: IC50 (nM) (Antagonist)
Sequence (Q5BJF2 whole entry): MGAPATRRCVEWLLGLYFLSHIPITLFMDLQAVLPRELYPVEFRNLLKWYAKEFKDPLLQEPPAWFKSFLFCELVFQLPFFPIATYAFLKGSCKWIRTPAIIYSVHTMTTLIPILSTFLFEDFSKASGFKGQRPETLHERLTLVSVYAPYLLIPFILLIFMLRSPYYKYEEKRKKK
Quantity: IC50 (nM)
Dear colleague, please return just the value in nM, with no unit written.

Fill blank: measured IC50 of the compound CN(C)CCC=C1c2ccccc2C=Cc2ccccc21 [cyclobenzaprine] is ____.
2000

###

test: clinical; conditions: human, in vivo, 2.4 mg, AUC0-20min
Quantity: AUC(0-t)

Fill blank: measured AUC(0-t) of the molecule CN(C)CCC=C1c2ccccc2C=Cc2ccccc21 is ____.
~0.04 ng·h/mL

###

target: UniProtKB P11229; assay: G-protein-dependent signal transduction, intracellular Ca2+ mobilization; type: cell-based; set-up: expressed in transfected cells; conditions: M1, Ca2+ mobilization; read-out: IC50, functional antagonist
Sequence (P11229 whole entry): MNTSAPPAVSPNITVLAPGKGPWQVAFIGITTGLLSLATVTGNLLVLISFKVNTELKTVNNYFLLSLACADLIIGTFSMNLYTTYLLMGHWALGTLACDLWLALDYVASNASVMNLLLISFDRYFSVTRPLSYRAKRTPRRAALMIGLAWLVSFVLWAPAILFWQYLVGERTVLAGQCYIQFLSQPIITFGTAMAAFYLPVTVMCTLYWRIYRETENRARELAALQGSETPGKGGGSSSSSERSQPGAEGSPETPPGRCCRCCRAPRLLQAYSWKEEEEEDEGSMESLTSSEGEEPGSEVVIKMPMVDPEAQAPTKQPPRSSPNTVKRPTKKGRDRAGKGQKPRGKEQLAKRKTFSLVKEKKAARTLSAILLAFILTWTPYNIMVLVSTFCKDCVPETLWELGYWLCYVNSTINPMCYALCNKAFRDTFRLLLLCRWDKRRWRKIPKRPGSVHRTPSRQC
Quantity: IC50 (nM)
Dear colleague, please return just the value in nM, with no unit written.

Fill blank: measured IC50 of the compound CN(C)CCC=C1c2ccccc2C=Cc2ccccc21 [cyclobenzaprine] is ____.
0.71

Fill blank: measured IC50 of the compound CNCCC=C1c2ccccc2C=Cc2ccccc21 [norcyclobenzaprine] is ____.
8.7

###

target: 5-HT2C receptor (Homo sapiens, UniProt P28335); test: Equilibrium receptor binding, recombinant human receptor
Sequence (P28335 33-458): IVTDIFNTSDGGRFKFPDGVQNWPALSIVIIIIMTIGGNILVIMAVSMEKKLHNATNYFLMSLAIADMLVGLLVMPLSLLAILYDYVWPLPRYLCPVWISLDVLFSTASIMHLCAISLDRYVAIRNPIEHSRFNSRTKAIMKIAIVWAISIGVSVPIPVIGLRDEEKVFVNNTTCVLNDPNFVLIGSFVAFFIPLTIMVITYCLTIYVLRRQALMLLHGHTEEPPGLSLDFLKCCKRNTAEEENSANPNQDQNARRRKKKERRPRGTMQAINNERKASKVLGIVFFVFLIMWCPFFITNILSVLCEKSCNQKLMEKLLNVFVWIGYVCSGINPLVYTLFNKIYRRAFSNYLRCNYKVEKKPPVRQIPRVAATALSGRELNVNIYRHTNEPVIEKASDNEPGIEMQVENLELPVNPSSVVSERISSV
pKi by entry:
Note: pKi values are expressed as the negative base-10 logarithm of concentration in M.

{"columns": ["Mol", "Measurement"],
 "data": [
  ["CNCCC=C1c2ccccc2C=Cc2ccccc21", 7.37]
]}

Fill blank: measured pKi of the compound CN(C)CCC=C1c2ccccc2CCc2ccccc21 is ____.
7.55

###

Ki by entry:
target: D5 (Homo sapiens, UniProt P21918); test: Equilibrium receptor binding, recombinant human receptor
Sequence (P21918 whole entry): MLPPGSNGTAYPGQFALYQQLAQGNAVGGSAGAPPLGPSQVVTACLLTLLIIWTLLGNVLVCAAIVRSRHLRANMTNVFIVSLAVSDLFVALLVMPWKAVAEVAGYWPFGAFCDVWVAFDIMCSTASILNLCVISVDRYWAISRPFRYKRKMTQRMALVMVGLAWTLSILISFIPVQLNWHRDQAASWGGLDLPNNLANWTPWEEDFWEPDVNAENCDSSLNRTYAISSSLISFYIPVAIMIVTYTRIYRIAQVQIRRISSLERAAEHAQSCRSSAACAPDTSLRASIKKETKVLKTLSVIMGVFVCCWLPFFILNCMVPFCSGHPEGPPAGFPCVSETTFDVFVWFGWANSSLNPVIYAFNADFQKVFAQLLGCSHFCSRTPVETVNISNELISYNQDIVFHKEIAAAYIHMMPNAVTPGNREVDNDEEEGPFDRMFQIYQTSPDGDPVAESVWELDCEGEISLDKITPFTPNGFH
Dear colleague, please return just the value in nM, with no unit written.

Fill blank: measured Ki of the compound CN(C)CCC=C1c2ccccc2C=Cc2ccccc21 is ____.
60

Fill blank: measured Ki of the compound CNCCC=C1c2ccccc2C=Cc2ccccc21 is ____.
280

###

biological target: muscarinic M2 receptor (Homo sapiens); assay: Equilibrium receptor binding, recombinant human receptor
Sequence (P08172 whole entry): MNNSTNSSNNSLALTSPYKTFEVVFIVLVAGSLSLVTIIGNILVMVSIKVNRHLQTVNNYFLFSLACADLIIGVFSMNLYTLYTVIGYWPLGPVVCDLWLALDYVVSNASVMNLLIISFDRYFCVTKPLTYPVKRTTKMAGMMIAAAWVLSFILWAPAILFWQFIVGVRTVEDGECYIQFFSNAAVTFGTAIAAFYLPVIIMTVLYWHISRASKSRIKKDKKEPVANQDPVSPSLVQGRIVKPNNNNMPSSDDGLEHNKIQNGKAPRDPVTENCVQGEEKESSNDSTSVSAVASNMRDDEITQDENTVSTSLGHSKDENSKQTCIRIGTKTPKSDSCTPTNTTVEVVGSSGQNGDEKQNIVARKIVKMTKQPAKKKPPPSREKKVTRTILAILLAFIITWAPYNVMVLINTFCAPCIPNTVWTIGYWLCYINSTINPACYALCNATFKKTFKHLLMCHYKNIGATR
pKi by entry:
Note: pKi values are expressed as the negative base-10 logarithm of concentration in M.

Please state recorded pKi (tested on muscarinic M2 receptor (Homo sapiens)) of CNCCC=C1c2ccccc2C=Cc2ccccc21
7.12

Please state recorded pKi (tested on muscarinic M2 receptor (Homo sapiens)) of CNCCC=C1c2ccccc2CCc2ccccc21
6.85

###

pKi by entry:
target: 5-HT6 (Homo sapiens, UniProt P50406); experiment: Equilibrium receptor binding, recombinant human receptor
Sequence (P50406 whole entry): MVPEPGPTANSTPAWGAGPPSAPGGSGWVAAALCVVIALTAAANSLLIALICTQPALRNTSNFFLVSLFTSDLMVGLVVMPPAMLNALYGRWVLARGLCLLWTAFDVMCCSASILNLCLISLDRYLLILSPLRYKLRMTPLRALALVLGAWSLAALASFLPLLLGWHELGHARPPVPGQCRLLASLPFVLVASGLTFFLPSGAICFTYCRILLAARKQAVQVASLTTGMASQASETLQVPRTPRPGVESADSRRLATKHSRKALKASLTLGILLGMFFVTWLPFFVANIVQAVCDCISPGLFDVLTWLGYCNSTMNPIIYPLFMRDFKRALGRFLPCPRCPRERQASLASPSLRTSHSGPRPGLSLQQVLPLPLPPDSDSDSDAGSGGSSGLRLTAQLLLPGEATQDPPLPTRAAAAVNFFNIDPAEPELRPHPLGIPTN
Note: pKi values are expressed as the negative base-10 logarithm of concentration in M.

{"columns": ["Molecule", "Measurement"],
 "data": [
  ["CNCCC=C1c2ccccc2C=Cc2ccccc21 [norcyclobenzaprine]", 5.85]
]}

API: the following record is the query input.
Fill blank: measured pKi of the molecule CN(C)CCC=C1c2ccccc2C=Cc2ccccc21 [cyclobenzaprine] is ____.
6.32

###

Assay: clinical
Conditions: human, in vivo, po, 5 mg
Protocol: The conditions used were as follows: Quantitation was based on peak area ratio of the analytes versus their stable labeled internal standards. A weighted (1/C2), linear regression was performed to determine the concentration of the analytes. […] Select receptors were analyzed in ligand-induced intracellular calcium mobilization.
Quantity: AUC(0-t) (µg·h/mL)
Dear colleague, please return just the value in µg·h/mL, with no unit written.

Fill blank: measured AUC(0-t) of the compound CN(C)CCC=C1c2ccccc2C=Cc2ccccc21 is ____.
0.0922

# credit: patent US20260232578A1
